src = paper PMC4150794

test system: RBPMS2-Nter (Homo sapiens); test: EMSA; details: theoretical Kd, cooperative fit; 100 nM RNA; second complex at 5 uM; EMSA: 20 mM Tris pH 7.4, 100 mM KCl, 1 mM EDTA, 10 ug/ml BSA, 1 mM DTT, 1 U/ul RNaseOUT, 2% glycerol, 20 C 30 min, 10% gel in 1X TBE at 4 C; anisotropy: 20 mM …
measured_property: pKd
Scale note: pKd = -log10(concentration in M).

Query block: Record request: pKd value, item 161-nt NOGGIN RNA
Result block: 5.65
